Recorded AC50, one value per entry.
biological target: Cytochrome P450 2D6 (Homo sapiens);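 also: CYP2D6 member of a cytochrome P450 panel assay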
Sequence (P10635 whole entry): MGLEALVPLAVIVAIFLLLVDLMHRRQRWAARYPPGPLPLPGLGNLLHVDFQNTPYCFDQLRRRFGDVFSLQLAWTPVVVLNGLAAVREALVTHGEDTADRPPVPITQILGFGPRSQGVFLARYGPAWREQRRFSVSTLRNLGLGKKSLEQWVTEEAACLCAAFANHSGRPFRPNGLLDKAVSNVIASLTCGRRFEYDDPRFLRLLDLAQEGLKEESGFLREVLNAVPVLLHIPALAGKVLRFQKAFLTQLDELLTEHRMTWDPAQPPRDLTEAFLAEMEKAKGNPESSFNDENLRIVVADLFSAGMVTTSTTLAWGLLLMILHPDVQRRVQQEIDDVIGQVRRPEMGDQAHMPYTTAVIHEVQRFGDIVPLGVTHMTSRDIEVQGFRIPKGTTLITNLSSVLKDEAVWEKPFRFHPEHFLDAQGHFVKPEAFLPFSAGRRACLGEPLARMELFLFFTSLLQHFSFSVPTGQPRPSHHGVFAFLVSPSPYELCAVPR

Some compounds with recorded AC50:
Cc1ccccc1-c1cc(Nc2ccccc2)ncn1 ... 39.8 µM (inconclusive)
CC(C)COc1ccc(C2(C#N)CC[N+](C)(C)CC2)cc1.[Br-] ... 11.2 µM (inconclusive)
C/C=C1\C[N@@+]2(C)CC[C@@]34C(=C(C=O)[C@H]1C[C@H]32)Nc1ccccc14 ... 6.31 µM (inconclusive)
CCc1ccccc1NC(=O)C1C(c2ccccc2)C1(Cl)Cl (stereo not given) ... 11.2 µM (inconclusive)
Cc1cccc(Oc2ncc(-c3ccc(Cl)cc3)cn2)c1C ... 17.8 µM (inconclusive)
O=C(Nc1ccc2c(c1)OCCO2)c1cccc2nc3ccccc3nc12 ... 8.91 µM (inconclusive)
Cc1cc2c(nc1C)CCCN2C[C@H](C)O/N=C1/[C@H]2O[C@@H]2[C@@H](O)[C@H]2[C@H]1CCn1c(=O)n(-c3ccccc3)c(=O)n12 ... 2.51 µM (inconclusive)
Cc1cccc(CN(C)CCc2ccccn2)c1 ... 2.51 µM (inconclusive)

Query block: Any idea what AC50 was measured for Nc1ccc(Sc2cnn(-c3ccccc3)c(=O)c2Cl)cc1 ?
Result block: 12.6 µM (inconclusive)

Query block: Please give the result for CC(C)c1nccn1Cc1ccc(Cl)cc1Cl too.
Result block: 3.16 µM (inconclusive)

Data provenance: ChEMBL document CHEMBL1201862
